Taken from the supplement of paper PMC5908809.

Tested on: SNK-6 (IL-2 2.5 ng/mL)
Assay: relative IC50 (inflection point of fitted viability curve, relative to fitted max inhibition); higher = less sensitive
Details: 72 h
Catalogue of compounds with associated relative IC50
Report the figure in nM without appending any unit label.

Study these solved cases before continuing.
| smiles_notation | measured_target | relative IC50, nM |
| --- | --- | --- |
| CN(C)Cc1ccc(S(=O)(=O)n2ccc(/C=C/C(=O)NO)c2)cc1 | SNK-6 (IL-2 2.5 ng/mL) | 829 |
| CO[C@@H]1[C@H](N(C)C(=O)c2ccccc2)C[C@H]2O[C@]1(C)n1c3ccccc3c3c4c(c5c6ccccc6n2c5c31)C(=O)NC4 | SNK-6 (IL-2 2.5 ng/mL) | 115 |
| Cn1cc(CNCC2CCN(c3ncc(C(=O)NO)cn3)CC2)c2ccccc21 | SNK-6 (IL-2 2.5 ng/mL) | 90.1 |
| O=C(O)c1ccc2c(c1)nc(Nc1cccc(Cl)c1)c1ccncc12 | SNK-6 (IL-2 2.5 ng/mL) | 3730 |
| Cc1nc(N)sc1-c1ccnc(Nc2ccc(N3CCOCC3)cc2)n1 | SNK-6 (IL-2 2.5 ng/mL) | 171 |

Kindly note the recorded relative IC50 for `CCC1=C[C@@H]2CN(C1)Cc1c([nH]c3ccccc13)[C@@](C(=O)OC)(c1cc3c(cc1OC)N(C)[C@H]1[C@@](O)(C(=O)OC)[C@H](OC(C)=O)[C@]4(CC)C=CCN5CC[C@]31[C@@H]54)C2` , which is 2.95

Kindly note the recorded relative IC50 for `COc1ccc(-c2cc3c(C)nc(N)nc3n([C@H]3CC[C@H](OCCO)CC3)c2=O)cn1` , which is 1060

Kindly note the recorded relative IC50 for `CC[C@@H]1C(=O)N(C)c2cnc(Nc3ccc(C(=O)N[C@H]4CC[C@H](N5CCN(CC6CC6)CC5)CC4)cc3OC)nc2N1C(C)C` , which is 6.44

Kindly note the recorded relative IC50 for `O=C(NOCC1CC1)c1ccc(F)c(F)c1Nc1ccc(I)cc1Cl` , which is 3940

---

System: NK-92 (IL-2 2.5 ng/mL)
Assay: percent inhibition of viability; higher = more inhibition
Settings: 72 h; 2500 nM
percent inhibition of viability strictly less than 60% = met. Otherwise not met.

Check out these entries, answers already filled in.
| compound | group |
| --- | --- |
| CN1CCN(C2CCN(C(=O)Nc3cc(Oc4ccc(NC(=O)C5(C(=O)Nc6ccc(F)cc6)CC5)c(F)c4)ccn3)CC2)CC1 [Golvatinib] (max concentration tested 2500 nM) | met |
| CCn1nnc2c(N3CCOCC3)nc(-c3ccc(NC(=O)Nc4ccc(C(=O)N5CCN(C)CC5)cc4)cc3)nc21 [PKI-402] (max concentration tested 2500 nM) | not met |
| Cc1cc(Nc2ncc(Cl)c(Nc3ccccc3S(=O)(=O)C(C)C)n2)c(OC(C)C)cc1C1CCNCC1 [Ceritinib] (max concentration tested 2500 nM) | met |

Request: Given the entry OCCn1cc(-c2cnc3nnn(Cc4ccc5ncccc5c4)c3n2)cn1 (max concentration tested 2500 nM) , would its reported percent inhibition of viability be below 60%?
Result: met

Request: Given the entry COc1cc(C(=O)NC2CCN(C)CC2)c(F)cc1Nc1ncc2c(n1)N(C1CCCC1)CC(F)(F)C(=O)N2C [TAK-960] (max concentration tested 2500 nM) , would its reported percent inhibition of viability be below 60%?
Result: met

Request: Given the entry NC(=O)Nc1sc(-c2ccc(F)cc2)cc1C(N)=O [TPCA-1] (max concentration tested 25000 nM) , would its reported percent inhibition of viability be below 60%?
Result: not met

---

Catalogue of compounds with associated percent inhibition of viability
Test system: normal NK cells expanded with K562-aAPC
Test: percent inhibition of viability; higher = more inhibition
Conditions: 72 h; IL-2 2.5 ng/mL; 1 nM
Report the figure in % without appending any unit label.

Study these solved cases before continuing.
| compound | unit_text | percent inhibition of viability |
| --- | --- | --- |
| CS(=O)(=O)N1CCc2c(-c3cnc(N)nc3)nc(N3CCOCC3)nc21 (max concentration tested 10000 nM) | % | -0.53 |
| C[C@@H]1COC(Nc2ccc3ncnc(Nc4ccc(OCc5nccs5)c(Cl)c4)c3c2)=N1 [Varlitinib] (max concentration tested 10000 nM) | % | -1.48 |
| CC(=O)Nc1ccc(C(=O)Nc2ccccc2N)cc1 [Tacedinaline] (max concentration tested 1000 nM) | % | -4 |

// next entry
The reported percent inhibition of viability value, normal NK cells expanded with K562-aAPC, for CN(C[C@@H]1COCCO1)S(=O)(=O)Nc1ccc2ccc3ncc(-c4cnn(C)c4)cc3c(=O)c2c1 [MK-2461] (max concentration tested 10000 nM) reads 2.16

---

Tested on: NK-YS (IL-2 2.5 ng/mL)
Experiment: percent inhibition of viability; higher = more inhibition
Conditions: 72 h; 1 nM
reported_property: percent inhibition of viability (%)
Report the figure in % without appending any unit label.

Study these solved cases before continuing.
| molecule | observed_result |
| --- | --- |
| O=C(NOC[C@H](O)CO)c1ccc(F)c(F)c1Nc1ccc(I)cc1F (max concentration tested 1000 nM) | -3.02 |
| O=C(O)c1ccc2c(c1)nc(Nc1cccc(Cl)c1)c1ccncc12 [Silmitasertib] (max concentration tested 10000 nM) | 5.01 |
| COc1cc(N2CCN(C)CC2)ccc1Nc1nccc(-c2cn(C)c3cnccc23)n1 [AZ191] (max concentration tested 10000 nM) | -4.12 |

// next entry
Kindly note the recorded percent inhibition of viability for Cc1ccc(C(=O)N(CCCN)[C@@H](c2oc3cc(Cl)ccc3c(=O)c2Cc2ccccc2)C(C)C)cc1 (max concentration tested 100 nM) , which is 5

---

Tested on: IMC-1 (IL-2 20 ng/mL)
Assay: percent inhibition of viability; higher = more inhibition
Settings: 72 h; 10 nM
reported_property: percent inhibition of viability (%)
Report the figure in % without appending any unit label.

| compound | unit_text | percent inhibition of viability |
| --- | --- | --- |
| COc1cc(N2CCN(C)CC2)ccc1Nc1nccc(-c2cn(C)c3cnccc23)n1 [AZ191] (max concentration tested 10000 nM) | % | 3.31 |

Kindly note the recorded percent inhibition of viability for CC(C)(C#N)c1cc(Cn2cncn2)cc(C(C)(C)C#N)c1 [Anastrozole] (max concentration tested 10000 nM) , which is -4.02

Kindly note the recorded percent inhibition of viability for Nc1ncnc2c1c(COc1cccc(Cl)c1)nn2C1CCOCC1 (max concentration tested 10000 nM) , which is -0.09

Kindly note the recorded percent inhibition of viability for COc1ccc(-c2cc3c(C)nc(N)nc3n([C@H]3CC[C@H](OCCO)CC3)c2=O)cn1 (max concentration tested 10000 nM) , which is -13.7

---

Test system: SNK-6 (IL-2 2.5 ng/mL)
Assay: percent inhibition of viability; higher = more inhibition
Conditions: 72 h; 100 nM
Catalogue of molecules with associated percent inhibition of viability
Report the figure in % without appending any unit label.

| molecule | unit_text | percent inhibition of viability |
| --- | --- | --- |
| O=NN(CCCl)C(=O)NC1CCCCC1 [Lomustine] (max concentration tested 10000 nM) | % | -2.23 |
| CON(C)C(=O)N1N=C(c2cc(F)ccc2F)S[C@@]1(CCCN)c1ccccc1 [ARRY-520] (max concentration tested 1000 nM) | % | 88 |
| COc1cc2c(cc1-c1c(C)noc1C)ncc1[nH]c(=O)n([C@H](C)c3ccccn3)c12 [I-BET151] (max concentration tested 10000 nM) | % | 19.2 |
| N[C@@H]1CCCN(c2c(/C=C3\SC(=O)NC3=O)cccc2-c2ccccc2)C1 [AZD1208] (max concentration tested 10000 nM) | % | -2.55 |
| O=C(NOCC1CC1)c1ccc(F)c(F)c1Nc1ccc(I)cc1Cl (max concentration tested 10000 nM) | % | -27.2 |
| CC(C)C[C@H](NC(=O)[C@H](CCc1ccccc1)NC(=O)CN1CCOCC1)C(=O)N[C@@H](Cc1ccccc1)C(=O)N[C@@H](CC(C)C)C(=O)[C@@]1(C)CO1 [Carfilzomib] (max concentration tested 1000 nM) | % | 101 |

Kindly note the recorded percent inhibition of viability for O=C(CCBr)N1CCN(C(=O)CCBr)CC1 [Pipobroman] (max concentration tested 10000 nM) , which is -17.4

Kindly note the recorded percent inhibition of viability for COc1ccc(-c2ccc3c(N4CCOC[C@@H]4C)nc(N4CCOC[C@@H]4C)nc3n2)cc1CO [AZD8055] (max concentration tested 10000 nM) , which is 53.8

Kindly note the recorded percent inhibition of viability for Cc1cn(-c2cc(NC(=O)c3ccc(C)c(Nc4nccc(-c5cccnc5)n4)c3)cc(C(F)(F)F)c2)cn1 [Nilotinib] (max concentration tested 10000 nM) , which is 9.61

Kindly note the recorded percent inhibition of viability for C[C@@H]1CN(Cc2ccc(F)cc2)[C@@H](C)CN1C(=O)c1cc2c(C(=O)C(=O)N(C)C)cn(C)c2cc1Cl [Talmapimod] (max concentration tested 10000 nM) , which is -3.03

Kindly note the recorded percent inhibition of viability for CC[C@@H]1C(=O)N(C)c2cnc(Nc3ccc(C(=O)N[C@H]4CC[C@H](N5CCN(CC6CC6)CC5)CC4)cc3OC)nc2N1C(C)C [Volasertib] (max concentration tested 1000 nM) , which is 65.5

Kindly note the recorded percent inhibition of viability for COc1ccc(-c2ccc3ncc4c(c3c2)n(-c2ccc(N3CCNCC3)c(C(F)(F)F)c2)c(=O)n4C)cn1 [NVP-BGT226] (max concentration tested 1000 nM) , which is 64.3
